Where a name gives a salt, the structure may show the parent alone.
Documented melting point across a set of compounds

Problem: // query melting point value for entry COC(=O)c1ccc(N2C3CCC2CN(CC(=O)N2CC=C(c4nccc5sccc45)CC2)C3)nc1
Solution: 170 to 171 °C

Problem: // query melting point value for entry COC(=O)c1ccc(N2C3CCC2CN(CC(=O)N2CC=C(c4cccc5ccsc45)C2)C3)nc1
Solution: 172 to 173 °C

Problem: // query melting point value for entry Cn1nnnc1-c1ccc(N2C3CCC2CN(CC(=O)N2CC=C(c4cccc5ccoc45)CC2)C3)nc1
Solution: 178 to 180 °C

Problem: // query melting point value for entry Cc1cc2cc(C3=CCN(C(=O)CN4CC5CCC(C4)N5c4ccc(C(=O)O)cn4)CC3)ccc2s1
Solution: 160 to 161 °C

Problem: // query melting point value for entry C[C@@H]1CN(c2cncnc2)C[C@H](C)N1CC(=O)N1CC=C(c2ccc3sccc3c2)CC1 [Compound 41]
Solution: 218 to 220 °C

Problem: // query melting point value for entry O=C(CN1CC2CCC(C1)N2c1ncc(F)cn1)N1CC=C(c2ccc3c(c2)OCCO3)CC1
Solution: 163 to 165 °C

Problem: // query melting point value for entry O=C(CN1CCN(c2ccc(C(F)(F)F)cn2)CC1)N1CC=C(c2ccc3sccc3c2)CC1 [Compound 46]
Solution: 170 to 171 °C

Problem: // query melting point value for entry C[C@@H]1CN(c2ncc(F)cn2)C[C@H](C)N1CC(=O)N1CC=C(c2c[nH]c3ccccc23)CC1 [Compound 100]
Solution: 235 to 237 °C

Problem: // query melting point value for entry COC(=O)c1ccc(N2C3CCC2CN(CC(=O)N2CC=C(c4cccc5ccoc45)C2)C3)nc1
Solution: 169 to 170 °C

Problem: // query melting point value for entry CCCc1cc2cc(C3=CCN(C(=O)CN4[C@H](C)CN(c5ccc(C(F)(F)F)cn5)C[C@@H]4C)CC3)ccc2s1 [Compound 68]
Solution: 157 to 159 °C

Problem: // query melting point value for entry O=C(CN1CCCN(c2cccnc2)CC1)N1CC=C(c2cccc3ccoc23)CC1 (as salt: oxalate) [Compound 78]
Solution: 100 to 101 °C

Problem: // query melting point value for entry O=C(CN1CCN(c2ccc(C(F)(F)F)cn2)C(=O)C1)N1CC=C(c2ccc3sccc3c2)CC1 [Compound 43]
Solution: 169 to 170 °C

Problem: // query melting point value for entry C[C@@H]1CN(c2cncnc2)C[C@H](C)N1CC(=O)N1CC=C(c2cccc3ccsc23)CC1 [Compound 55]
Solution: 195 to 196 °C

Problem: // query melting point value for entry C[C@@H]1CN(c2ncc(F)cn2)C[C@H](C)N1CC(=O)N1CC=C(c2ccc3c(c2)OCCO3)CC1 (as salt: oxalate) [Compound 44]
Solution: 90 to 91 °C

Problem: // query melting point value for entry O=C(CN1CCN(c2cccc(Cl)n2)CC1)N1CC=C(c2cccc3ccsc23)CC1 [Compound 107]
Solution: 92 to 93 °C

Problem: // query melting point value for entry COC(=O)c1ccc(N2C[C@@H](C)N(CC(=O)N3CC=C(c4cccc5ccsc45)CC3)[C@@H](C)C2)nc1 (as salt: HCl) [Compound 58]
Solution: 208 to 210 °C

Problem: // query melting point value for entry COC(=O)c1ccc(N2C[C@@H](C)N(CC(=O)N3CC=C(c4ccc5sccc5c4)CC3)[C@@H](C)C2)nc1 [Compound 52]
Solution: 130 to 132 °C

Problem: // query melting point value for entry COC(=O)c1cc2cccc(C3=CCN(C(=O)CN4[C@H](C)CN(c5ccc(C(F)(F)F)cn5)C[C@@H]4C)CC3)c2s1 (as salt: HCl) [Compound 66]
Solution: 138 to 141 °C

Problem: // query melting point value for entry O=C(CN1CC2CCC(C1)N2c1cccnc1)N1CC=C(c2cccc3ccoc23)CC1
Solution: 121 to 123 °C

Problem: // query melting point value for entry O=C(O)c1ccc(N2C3CCC2CN(CC(=O)N2CC=C(c4cccc5ccsc45)CC2)C3)nc1 [71]
Solution: 121 to 122 °C
